Observed Property: melting point

>  <Compound>
O=S(=O)(Cc1ccccc1)NCCCCOc1ccc(-n2ccnc2)cc1

>  <melting point>
123 to 124 °C

$$$$
>  <Compound>
Cc1cc(C2CN(C(=O)Nc3ccc(OC(F)(F)F)cc3)N=C2c2ccccc2)on1 (stereo not given)

>  <melting point>
195 to 197 °C

$$$$
>  <Compound>
CCOC(=O)c1cn(-c2cccnc2)nc1Br

>  <melting point>
94 to 95 °C

$$$$
>  <Compound>
O=CNCc1ccc(CN2CCN(c3ccccc3)CC2)cc1

>  <melting point>
108 to 109 °C

$$$$
>  <Compound>
O=C(O)c1nc(Cl)cc([N+](=O)[O-])c1Cl

>  <melting point>
192 to 193 °C

$$$$
>  <Compound>
CCCCOc1nc(N)c2[nH]c(=O)n(CCCNS(=O)(=O)c3cccc(CC(=O)OC)c3)c2n1

>  <melting point>
218 to 219 °C

$$$$
>  <Compound>
CCCc1nc2c(n1Cc1ccc(-c3ccccc3-c3nnn[nH]3)cc1)C(C(=O)OCC)N(C(C)=O)CC2 (stereo not given)

>  <melting point>
184 to 185 °C

$$$$
>  <Compound>
CON=C(Cn1nnnc1S)C(=O)O

>  <melting point>
84 to 86 °C

$$$$
>  <Compound>
Cc1cc(NN)c2ccccc2n1

>  <melting point>
195 to 197 °C

$$$$

Now for the compound whose melting point we want.
[in] For the compound COC(=O)CCCc1cc2nc(Cl)ccc2n1S(=O)(=O)c1ccc2c(c1)CCO2 , give its reported melting point.
[out] 201 °C

###

Measured melting point by item

# annotated cases, reported melting point shown
>  <Compound>
CCCCNC(=O)C1CCCCC1(O)C(=O)c1ccc(OC)cc1 (configuration not stated)

>  <melting point>
94 to 95 °C

$$$$
>  <Compound>
Cc1ccc(C(=O)Nc2ccccc2N2CCN(Cc3ccc[nH]3)CC2)c(-c2ccc(C(F)(F)F)cc2)c1

>  <melting point>
196 to 198 °C

$$$$
>  <Compound>
C(=C(c1ccccc1)c1ccccc1)c1ccccn1

>  <melting point>
117 to 119 °C

$$$$
>  <Compound>
NS(=O)(=O)Oc1ccc(F)cc1

>  <melting point>
82.5 to 85.5 °C

$$$$
>  <Compound>
Cc1ccccc1CC(C(=O)Nc1cnc(Br)cn1)c1ccc(S(C)(=O)=O)cc1 (configuration not stated)

>  <melting point>
194 to 195 °C

$$$$
>  <Compound>
CN(C)C(=O)C(CCO)C1CCc2c1[nH]c1ccccc21 (configuration not stated)

>  <melting point>
118 to 120 °C

$$$$
>  <Compound>
CCOC(=O)C1=C(C)NN=C(CC)C1c1cccc(Cl)c1 (configuration not stated)

>  <melting point>
112 °C

$$$$
>  <Compound>
C#CC(O)(c1ccccc1)c1ccncc1 (configuration not stated)

>  <melting point>
165 to 166 °C

$$$$
>  <Compound>
COC(=O)C(C)c1cc(=O)n(Cc2ccccc2)c2ccccc12 (configuration not stated)

>  <melting point>
90 to 92.5 °C

$$$$
>  <Compound>
O=[N+]([O-])c1ccc(C(O)c2ccccn2)c(Cl)c1 (configuration not stated)

>  <melting point>
124 to 127 °C

$$$$

[in] For the compound COc1ccc(CCOc2cccc(-c3cccc(C(N)=O)c3)n2)cc1OC , give its reported melting point.
[out] 141 to 142 °C

[in] For the compound COc1cc(-c2ccc(O)cc2)ccc1C=O , give its reported melting point.
[out] 159 to 161 °C

[in] For the compound CC(=O)NCc1cccc(-c2nc(=O)c3ccccc3s2)n1 , give its reported melting point.
[out] 199 to 200 °C

[in] For the compound O=C(O)CCCCCCCSc1nc(-c2ccccc2)c(-c2ccccc2)[nH]1 , give its reported melting point.
[out] 160 to 162 °C

[in] For the compound N#Cc1ccc(OCC(=O)O)cc1F , give its reported melting point.
[out] 150 to 152 °C

[in] For the compound O=c1[nH]c(=S)n2c3c1cnn3C(c1ccccc1)=CC2 , give its reported melting point.
[out] 289 to 291 °C

[in] For the compound [O-][N+]1=Cc2cccc3c2C(C1)c1ccccc1CC3 (configuration not stated) , give its reported melting point.
[out] 156 to 158 °C

[in] For the compound COC(=O)COc1cccc(OCCC(c2ccccc2)(c2ccccc2)c2ccccc2)c1 , give its reported melting point.
[out] 103 to 105 °C

[in] For the compound COc1c(F)cc(Br)c(C(=O)O)c1F , give its reported melting point.
[out] 92 to 94 °C

[in] For the compound OC(C#CI)(c1ccc(-c2ccccc2)cc1)c1cccc(Cl)c1 (configuration not stated) , give its reported melting point.
[out] 99 to 100 °C

[in] For the compound CC(C)(C)c1ccc(C(=O)C(Cl)Cl)cc1 , give its reported melting point.
[out] 47 to 49 °C

[in] For the compound CC(c1ccc(CCn2cnc3cc(-c4ccc(Cl)cc4)sc3c2=O)cc1)N1CCCCC1 (configuration not stated) , give its reported melting point.
[out] 175 to 179 °C

[in] For the compound COc1cc(C2(C)C(=O)Nc3ccccc3C2=O)ccc1O (configuration not stated) , give its reported melting point.
[out] 168 to 169 °C

[in] For the compound CC(Cn1cc(Sc2ccccc2)c2ccccc21)N(O)C(N)=O (configuration not stated) , give its reported melting point.
[out] 73 to 76 °C

[in] For the compound NC(=O)c1ccc(F)c2c1CC(N(CCCc1c[nH]c3c(Cl)cccc13)C1CCC1)CO2 (configuration not stated) , give its reported melting point.
[out] 154 to 163 °C

[in] For the compound O=c1oc2cc(N3CCN(CCF)CC3)ccc2cc1-c1nc2ccccc2s1 , give its reported melting point.
[out] 246 °C

[in] For the compound CCOC(=O)C1=C(C)NC(C)=C(/C=C/S(=O)(=O)NC(C)C)C1Cc1cccc([N+](=O)[O-])c1 (configuration not stated) , give its reported melting point.
[out] 191 to 193 °C

[in] For the compound O=Cc1c[nH]c2cccc(O)c12 , give its reported melting point.
[out] 196 to 200 °C

[in] For the compound CCCCNC(=S)c1cccc(NC(=O)N(C)C)c1 , give its reported melting point.
[out] 68 to 71 °C

[in] For the compound CC(C)C(=O)Oc1ccc2c(c1)OCN(CCO[N+](=O)[O-])C2=O , give its reported melting point.
[out] 70 to 71 °C

###

Observed Property: melting point

# annotated cases, reported melting point shown
>  <Compound>
Cc1[nH]c2ccccc2c1C1=C(c2c(C)[nH]c3ccccc23)C(=O)NC1=O

>  <melting point>
311 to 313 °C

$$$$
>  <Compound>
CN1CCN(c2cccc3ccc(C(=O)c4ccccc4)cc23)CC1

>  <melting point>
124 °C

$$$$
>  <Compound>
O=C1CCC(O)=C1Cc1cccc(CCNS(=O)(=O)c2ccc(Cl)cc2)c1

>  <melting point>
176 to 178 °C

$$$$
>  <Compound>
COc1ccc(Cn2c3c(c4cc(OC)c(OC)cc4c2=O)C(=O)c2cc4c(cc2-3)OCO4)cc1

>  <melting point>
360 to 364 °C

$$$$
>  <Compound>
CCOC(=O)C(=NOCCI)c1csc(NC(c2ccccc2)(c2ccccc2)c2ccccc2)n1

>  <melting point>
110 °C

$$$$

[in] For the compound N=C(N)NCCCc1cc[nH]n1 , give its reported melting point.
[out] 210 °C

[in] For the compound O=C(O)C(CC=Cc1ccccc1)Cc1cccc2ccccc12 (stereo unspecified) , give its reported melting point.
[out] 135 to 137 °C

[in] For the compound O=Cc1cccn1-c1ccc2ccc3[nH]c(=O)c(=O)[nH]c3c2c1 , give its reported melting point.
[out] > 250 °C

###

Measured melting point by item

>  <Compound>
CN1C(=O)CC[C@]2(C)c3ccc(-c4ccc(Cl)cc4Cl)cc3CC[C@@H]12

>  <Result>
45 to 48 °C

$$$$

[in] For the compound O=[N+]([O-])c1ccc(C=Cc2nc(Cl)c3ccccc3n2)o1 , give its reported melting point.
[out] 252 to 254 °C

[in] For the compound N#Cc1cc(=O)c2ccc(OCCCCl)cc2o1 , give its reported melting point.
[out] 124 to 125 °C

[in] For the compound CC(=O)OC(OC(C)=O)c1ccc(C(OC(C)=O)(C(F)(F)F)C(F)(F)F)cc1 , give its reported melting point.
[out] 93 to 94.6 °C

[in] For the compound CCC(NC(=O)COc1c(C)cccc1C)C(N)=O (stereo not given) , give its reported melting point.
[out] 182 to 184 °C

[in] For the compound CCCCCCCCCCCCCCCCCCOc1ccc(C(=O)C(=O)O)cc1 , give its reported melting point.
[out] 78 to 80 °C

[in] For the compound O=C(O)CC(C(=O)O)c1ccn2c(=O)c(C(=O)O)ccc2c1 (stereo not given) , give its reported melting point.
[out] 250 °C

[in] For the compound CC(C)(C)C(=O)OCN1C(=O)NC2(C1=O)C(=O)N(Cc1ccc(Cl)c(Cl)c1)c1ccccc12 (stereo not given) , give its reported melting point.
[out] 209 to 211 °C
